Where do the numbers come from? From ChEMBL document CHEMBL5512601.

# SYSTEM UNDER TEST: Mitogen-activated protein kinase kinase kinase 5 (Homo sapiens)
# TEST: Inhibition of N-terminal his-tagged human ASK1 (649 to 946 residues) expressed in Escherichia coli using [gamma-32p]ATP as substrate by liquid scintillation counting analysis
pIC50: −log10 of the molar value.
Label No if pIC50 falls below 8; label Yes in every other case.

Record "C=C(C)[C@@H]1CC[C@]2(C(=O)O)CC[C@]3(C)[C@H](C[C@@H](O)[C@@H]4[C@@](C)([C@H](O)CC(=O)O)[C@H](C(=C)C)CC[C@]43C)[C@@H]12" ; criterion: pIC50 no lower than 8. Met? No

Record "C=C(C)[C@@H]1CC[C@]2(C(=O)O)CC[C@]3(C)[C@H](C[C@H]4OC(=O)C[C@@H](O)[C@]5(C)[C@@H]4[C@@]3(C)CC[C@H]5C(=C)C)[C@@H]12" ; criterion: pIC50 no lower than 8. Met? No

Record C=C(C)[C@@H]1CC[C@]2(C(=O)O)CC[C@]3(C)[C@H](C[C@@H](O)[C@@H]4[C@@]5(C)C(CC(=O)O)OC(C)(C)C5CC[C@]43C)[C@@H]12 (stereo not given in full) ; criterion: pIC50 no lower than 8. Met? No

Record C=C(C)[C@@H]1CC[C@]2(C(=O)On3nnc4ccccc43)CC[C@]3(C)[C@H](C[C@@H](O)[C@@H]4[C@@]5(C)C(CC(=O)OCC)OC(C)(C)C5CC[C@]43C)[C@@H]12 (stereo not given in full) ; criterion: pIC50 no lower than 8. Met? Yes

Record "C=C(C)[C@@H]1CC[C@]2(C(=O)N(CCOCCOn3nnc4ccccc43)C(=O)OC(C)(C)C)CC[C@]3(C)[C@H](C[C@H]4OC(=O)C[C@@H](O)[C@]5(C)[C@@H]4[C@@]3(C)CC[C@H]5C(=C)C)[C@@H]12" ; criterion: pIC50 no lower than 8. Met? Yes

----------
# SYSTEM UNDER TEST: Mitogen-activated protein kinase kinase kinase 5 (Homo sapiens)
# TEST: Inhibition of ASK1 (unknown origin) preincubated with compound for 30 mins followed by ATP addition and measured after 120 mins by HTRF analysis
Exercise: state measured pIC50 for each of the molecules provided.
Interpret pIC50 as the negative base-10 log of the concentration measured in mol/L.

# pIC50 lookup, item "CC(C)n1cnnc1-c1cccc(-n2ncc3ccc(-n4cnc(C5CC5)c4)cc3c2=O)n1" 9.05

# pIC50 lookup, item "CC(C)n1cnnc1-c1cccc(N2CCOc3ccc(-n4cnc(C5CC5)c4)cc3C2=O)n1" 8.37

# pIC50 lookup, item "CC(C)n1cnnc1-c1cccc(-c2coc3ccc(-n4cnc(C5CC5)c4)cc3c2=O)n1" 8.94

# pIC50 lookup, item "CC(C)n1cnnc1-c1cccc(-c2cn(C)c3ccc(-n4cnc(C5CC5)c4)cc3c2=O)n1" 8.86

# pIC50 lookup, item "CC(C)n1cnnc1-c1cccc(-n2cnc3ccc(-n4cnc(C5CC5)c4)cc3c2=O)n1" 7.96

----------
# TEST: AUC (0 to t) in rat 5 mg/kg, po measured upto 24 hrs by LC-MS/MS analysis
# Format: ADME, organism-based
# STUDY CONDITIONS: in vivo
TEST READOUT: AUC(0-t) at 24 h (ng·h/mL)
The reply should contain only the number, in ng·h/mL.

# AUC(0-t) at 24 h lookup, item "Cc1cc2c(cc1-n1cnc(C3CC3)c1)C(=O)N(c1cccc(-c3nncn3C(C)C)n1)C2" 19200

# AUC(0-t) at 24 h lookup, item Cc1cc2c(cc1-n1cnc(C3CC3)c1)C(=O)N(c1cccc(-c3nncn3C(C)C)n1)C2C (configuration not stated) 9430

----------
# SYSTEM UNDER TEST: Mitogen-activated protein kinase kinase kinase 5 (Homo sapiens)
# TEST: Inhibition of ASK1 (unknown origin)
TEST READOUT: pIC50
Interpret pIC50 as the negative base-10 log of the concentration measured in mol/L.

# pIC50 lookup, item "CC(C)n1cnnc1-c1cccc(N2Cc3cc(-n4cnc(C5CC5)c4)ccc3C2=O)n1" 8.75

# pIC50 lookup, item "CC(C)n1cnnc1-c1cccc(-n2ccc3ccc(-n4cnc(C5CC5)c4)cc3c2=O)n1" 8.57

# pIC50 lookup, item "CC(C)n1cnnc1-c1cccc(N2C(=O)c3ccc(-n4cnc(C5CC5)c4)cc3C2(C)C)n1" 8.49

# pIC50 lookup, item "CC(C)n1cnnc1-c1cccc(N2Cc3ccc(-n4cnc(C5CC5)c4)cc3C2=O)n1" 9.03

# pIC50 lookup, item "COc1cc2ccn(-c3cccc(-c4nncn4C(C)C)n3)c(=O)c2cc1-n1cnc(C2CC2)c1" 8.78

# pIC50 lookup, item "CC(C)n1cnnc1-c1cccc(N2CCc3ccc(-n4cnc(C5CC5)c4)cc3C2=O)n1" 8.74

# pIC50 lookup, item "CC(C)n1nnnc1-c1cccc(N2C(=O)c3cc(-n4cnc(C5CC5)c4)ccc3C2(C)C)n1" 8.29

# pIC50 lookup, item "Cc1cc2c(cc1-n1cnc(C3CC3)c1)C(=O)N(c1cccc(-c3nncn3C(C)C)n1)CC2" 8.66

# pIC50 lookup, item "CC(C)n1cnnc1-c1cccc(N2CC(C)(C)c3ccc(-n4cnc(C5CC5)c4)cc3C2=O)n1" 8.23

# pIC50 lookup, item "Cn1nc(C(F)(F)F)c2cc(C(=O)Nc3cccc(-c4nncn4C4CC4)n3)c(=O)[nH]c21" 5.58

----------
# SYSTEM UNDER TEST: Mitogen-activated protein kinase kinase kinase 5 (Homo sapiens, UniProt Q99683)
# Sequence (Q99683 whole entry, the tested form may be a part): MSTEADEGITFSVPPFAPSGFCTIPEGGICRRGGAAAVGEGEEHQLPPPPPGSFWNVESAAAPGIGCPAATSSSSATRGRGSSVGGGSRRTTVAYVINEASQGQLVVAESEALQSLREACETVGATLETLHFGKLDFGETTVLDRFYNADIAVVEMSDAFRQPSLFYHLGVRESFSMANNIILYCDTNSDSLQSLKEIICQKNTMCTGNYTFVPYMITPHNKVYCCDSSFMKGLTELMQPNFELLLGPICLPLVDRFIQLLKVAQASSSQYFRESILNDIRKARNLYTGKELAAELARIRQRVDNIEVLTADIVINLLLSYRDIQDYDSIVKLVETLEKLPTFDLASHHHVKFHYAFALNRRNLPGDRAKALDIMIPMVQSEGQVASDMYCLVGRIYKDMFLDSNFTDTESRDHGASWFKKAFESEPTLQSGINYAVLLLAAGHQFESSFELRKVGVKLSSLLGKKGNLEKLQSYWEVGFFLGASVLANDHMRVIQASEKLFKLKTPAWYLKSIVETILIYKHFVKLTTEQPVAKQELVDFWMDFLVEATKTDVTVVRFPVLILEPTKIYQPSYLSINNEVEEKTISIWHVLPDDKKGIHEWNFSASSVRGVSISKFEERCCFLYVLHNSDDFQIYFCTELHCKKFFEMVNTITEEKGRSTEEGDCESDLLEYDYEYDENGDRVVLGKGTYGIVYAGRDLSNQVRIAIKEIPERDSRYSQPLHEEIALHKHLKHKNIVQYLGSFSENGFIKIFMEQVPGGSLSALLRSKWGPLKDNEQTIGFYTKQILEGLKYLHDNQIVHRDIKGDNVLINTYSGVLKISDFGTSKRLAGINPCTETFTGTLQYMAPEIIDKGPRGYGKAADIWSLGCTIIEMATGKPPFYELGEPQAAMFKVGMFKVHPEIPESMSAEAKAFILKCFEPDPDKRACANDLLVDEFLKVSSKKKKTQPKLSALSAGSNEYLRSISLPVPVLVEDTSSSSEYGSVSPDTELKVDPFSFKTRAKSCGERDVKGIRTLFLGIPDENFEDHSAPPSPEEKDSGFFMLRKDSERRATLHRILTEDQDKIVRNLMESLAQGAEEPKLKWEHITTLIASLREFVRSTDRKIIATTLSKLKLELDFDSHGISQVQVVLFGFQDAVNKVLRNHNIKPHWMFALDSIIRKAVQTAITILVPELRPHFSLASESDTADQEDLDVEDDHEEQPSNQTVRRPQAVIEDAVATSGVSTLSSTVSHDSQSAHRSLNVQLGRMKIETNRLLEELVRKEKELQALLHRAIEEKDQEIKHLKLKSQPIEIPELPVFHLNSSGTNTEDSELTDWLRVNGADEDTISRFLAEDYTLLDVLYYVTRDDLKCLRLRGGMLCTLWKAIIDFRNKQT
# TEST: Inhibition of ASK1 phosphorylation in HEK293T cells incubated for 1 hr
# Assay type: cell-based
Exercise: state measured IC50 for each of the compounds provided.

# IC50 lookup, item "C[C@H]1CCCOc2ncccc2C(=O)Nc2cccc(n2)-c2nncn21" ≤ 1000 nM

# IC50 lookup, item "C[C@H]1CCCOc2ncc(-c3ccncc3)cc2C(=O)Nc2cccc(n2)-c2nncn21" ≤ 100 nM

----------
Exercise: state measured Kp uu for each of the compounds provided.
# TEST: Unbound brain-to-plasma concentration ratio in rat at 1 mg/kg, iv by LC-MS/MS analysis
# Assay type: ADME, organism-based
# STUDY CONDITIONS: brain and plasma, read-out: K(p,uu,brain)

# Kp uu lookup, item "C[C@H]1CCCOc2ncc(-c3ccncc3)cc2C(=O)Nc2cccc(n2)-c2nncn21" ≥ 0.1

# Kp uu lookup, item "C[C@H]1CCCOc2ncccc2C(=O)Nc2cccc(n2)-c2nncn21" ≥ 0.1

----------
# TEST: Toxicity in C57BL/6J mouse harboring SOD1 mutant assessed as animal survival (reference value: 1.06%)
# STUDY CONDITIONS: in vivo, read-out: Activity
TEST READOUT: survival (%)
The reply should contain only the number, in %.

# survival lookup, item "COc1cc2nncc(Oc3ccc(NC(=O)c4cn(C(C)C)c5c(c4=O)CCC=C5)cc3)c2cc1OC" 1.08

# survival lookup, item "COc1cc2nccc(Oc3ccc(NC(=O)c4cn(C(C)C)c5c(c4=O)CCC=C5)cc3)c2cc1OC" 1.09

----------
# SYSTEM UNDER TEST: Mitogen-activated protein kinase kinase kinase 5 (Homo sapiens)
# TEST: Inhibition of full length GST-tagged recombinant human ASK1 using MBP as substrate incubated for 20 mins by cell based assay
Exercise: state measured IC50 for each of the molecules provided.

# IC50 lookup, item "Cc1cc(F)c(C(=O)Nc2cccc(-c3nnc4n3CCCC4)n2)cc1-n1cnc(C2CC2)c1" ≤ 0.1 µM

# IC50 lookup, item "Cc1cc(F)c(C(=O)Nc2cccc(-c3nnc4n3CCCC4)n2)cc1-n1cnc(C2CC2)n1" ≤ 0.1 µM

# IC50 lookup, item "Cc1cc(F)c(C(=O)Nc2cccc(-c3nnc4n3CCCC4)n2)cc1-n1nnc(C2CC2)n1" > 0.1 µM

# IC50 lookup, item "Cc1cc(F)c(C(=O)Nc2cccc(-c3nnc4n3CCCC4)n2)cc1-n1cc(C2CC2)nn1" > 0.1 µM

----------
# SYSTEM UNDER TEST: Mitogen-activated protein kinase kinase kinase 5 (Homo sapiens, UniProt Q99683)
# TEST: Inhibition of human recombinant ASK1 by HTRF assay
TEST READOUT: IC50 (µM)
The reply should contain only the number, in µM.

# IC50 lookup, item "CC(C)n1cnnc1-c1cccc(NC(=S)Nc2ccccn2)n1" 0.05

# IC50 lookup, item "Cc1ccc(-n2ccn(-c3cccc(-c4nncn4C(C)C)n3)c2=O)c(F)c1" 0.05

# IC50 lookup, item "CC(C)n1cnnc1-c1cccc(C(=O)Nc2cc(-n3cnc(C4CC4)c3)ccn2)n1" 0.0007

# IC50 lookup, item "Cc1ccc(-c2cnc(-c3cccc(-c4nncn4C(C)C)n3)s2)c(F)c1" 0.05

----------
# TEST: Half life in rat 5 mg/kg, po measured upto 24 hrs by LC-MS/MS analysis
# Assay type: ADME, organism-based
# STUDY CONDITIONS: in vivo
Exercise: state measured half-life for each of the molecules provided.
The reply should contain only the number, in h.

# half-life lookup, item "Cc1cc2c(cc1-n1cnc(C3CC3)c1)C(=O)N(c1cccc(-c3nncn3C(C)C)n1)C2" 1.3

# half-life lookup, item Cc1cc2c(cc1-n1cnc(C3CC3)c1)C(=O)N(c1cccc(-c3nncn3C(C)C)n1)C2C (configuration not stated) 2.9
